# tested_on: D(1A) dopamine receptor (Homo sapiens) (UniProt P21728)
# Sequence (P21728 whole entry, looked up): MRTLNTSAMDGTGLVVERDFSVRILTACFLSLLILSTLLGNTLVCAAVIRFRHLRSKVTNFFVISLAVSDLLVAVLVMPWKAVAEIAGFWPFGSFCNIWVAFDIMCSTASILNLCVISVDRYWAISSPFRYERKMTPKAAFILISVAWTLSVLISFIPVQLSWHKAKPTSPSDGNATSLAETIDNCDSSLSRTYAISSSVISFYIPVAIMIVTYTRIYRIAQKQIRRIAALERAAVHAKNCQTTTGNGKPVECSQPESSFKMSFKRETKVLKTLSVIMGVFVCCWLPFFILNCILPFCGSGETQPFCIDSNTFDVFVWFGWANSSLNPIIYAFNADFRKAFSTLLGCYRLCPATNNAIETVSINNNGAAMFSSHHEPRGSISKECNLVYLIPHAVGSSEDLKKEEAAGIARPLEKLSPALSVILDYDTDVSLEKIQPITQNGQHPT
# method_description: Antagonist of Human D 1 Dopamine Receptor: qHTS
# measurement_setup: HEK293 TREx D1 cells, calcium flux, dopamine EC80; at 10 µM
Hit rate of the full screen: of about 360,000 compounds, about 11,000 (3.1%) were called active. No stated cut-off is given here; in the data, active means activity change below about -30%; inactive means the rest. The sample holds actives, similar compounds and a random draw of the others, so the mix is not that of the screen.
One label from this list, please: active, inactive

Prompt: Per the records of this test, what outcome belongs to COc1ccc(S(=O)(=O)NCc2cccn2Cc2cccc(C)c2)cc1Cl ?
Completion: inactive

Prompt: Per the records of this test, what outcome belongs to CCN(CCCNC(=O)c1cc2c(=O)n(CC)c3ccccc3c2s1)Cc1ccccc1 ?
Completion: inactive

Prompt: Per the records of this test, what outcome belongs to CC1=Nc2cc(C(=O)NCc3ccc(C)cc3)ccc2Sc2ccc(Cl)cc21 ?
Completion: inactive

Prompt: Per the records of this test, what outcome belongs to COC(=O)CC1=NN(c2ccccc2)C(=O)C1 ?
Completion: active

Prompt: Per the records of this test, what outcome belongs to Cc1nc(N)[nH]c(=O)c1Oc1cccc(C(F)(F)F)c1 ?
Completion: inactive

Prompt: Per the records of this test, what outcome belongs to Cc1ccc2c(cnn2C(=O)CCC(=O)NC2CCCC2)c1 ?
Completion: active

Prompt: Per the records of this test, what outcome belongs to CC1CCN(S(=O)(=O)c2ccc3c(c2)N(CC(=O)NCCc2ccccc2)C(=O)CO3)CC1 ?
Completion: inactive

Prompt: Per the records of this test, what outcome belongs to COC(=O)CC1=NN(c2nc(C)cc(C)n2)C(=O)C1 ?
Completion: inactive

Prompt: Per the records of this test, what outcome belongs to Cc1ccccc1CNC(=O)c1cccc(NC(=O)c2nsc3ccccc23)c1 ?
Completion: inactive

Prompt: Per the records of this test, what outcome belongs to Cc1cc(O)c(C(c2ccccc2)N2CCN(c3ccccc3F)CC2)c(=O)n1Cc1ccco1 (configuration not stated) ?
Completion: inactive

Prompt: Per the records of this test, what outcome belongs to Cc1cc(C)cc(NC(=O)CSc2oc(-c3ccccc3)nc2S(=O)(=O)c2ccc(Cl)cc2)c1 ?
Completion: inactive

Prompt: Per the records of this test, what outcome belongs to O=C(OCc1cc(=O)n2nc(C3CC3)sc2n1)c1ccccc1Cl ?
Completion: inactive

Prompt: Per the records of this test, what outcome belongs to CC(C)C(=O)Nc1nc2c(s1)CC(C(C)(C)C)CC2 (configuration not stated) ?
Completion: inactive

Prompt: Per the records of this test, what outcome belongs to C/C(N)=C(/C#N)C(=O)COC(=O)C1=NN(c2ccccc2)C(=O)CC1 ?
Completion: inactive

Prompt: Per the records of this test, what outcome belongs to CC(=O)Cc1nsc(NC(=O)c2ccc(COc3ccc(C)cc3)o2)n1 ?
Completion: active

Prompt: Per the records of this test, what outcome belongs to CCOC(=O)NNc1cc(C(F)(F)F)ccn1 ?
Completion: inactive

Prompt: Per the records of this test, what outcome belongs to CCOc1ccc(S(=O)(=O)c2cn(Cc3ccc(OC)cc3)c3ccc(F)cc3c2=O)cc1 ?
Completion: inactive

Prompt: Per the records of this test, what outcome belongs to COc1ccc(CNC(=O)c2ccc3c(c2)nc2n3CCOC2)c(OC)c1 ?
Completion: inactive

Prompt: Per the records of this test, what outcome belongs to Cc1cccc(-c2noc(CCC(=O)NC3CCCC3)n2)c1 ?
Completion: inactive

Prompt: Per the records of this test, what outcome belongs to CCOc1ccccc1CNC(=O)c1ccc(-n2c(C)cc3c2CCC(C)C3)cc1 (configuration not stated) ?
Completion: inactive

Prompt: Per the records of this test, what outcome belongs to CCc1ccc(NC(=O)c2cc3c(=O)n(Cc4cccnc4)ccc3nc2C)cc1 ?
Completion: inactive

Prompt: Per the records of this test, what outcome belongs to Cc1ccc(S(=O)(=O)N2[C@@H](c3cccc(Cl)c3)C(C(=O)O)=CC[C@H]2c2ccc(Cl)c(Cl)c2)cc1 ?
Completion: inactive

Prompt: Per the records of this test, what outcome belongs to COC(=O)C1=C(C(=O)OC)[C@@H]2N(C)c3ccccc3[C@@]23C[C@@H](C(=O)OC)N(C(C)=O)C3=N1 ?
Completion: active

Prompt: Per the records of this test, what outcome belongs to CCN1CCN(CC(=O)Nc2sc3c(c2C#N)CCC3)CC1 ?
Completion: inactive

Prompt: Per the records of this test, what outcome belongs to Cc1ccc([C@@H]2CC=C(C(=O)O)[C@H](c3cccc(Cl)c3)N2S(=O)(=O)c2ccc(C)cc2)cc1 ?
Completion: inactive

Prompt: Per the records of this test, what outcome belongs to Cc1ccc(S(=O)(=O)c2nnn3c2nc(N2CCN(c4ccccc4F)CC2)c2cc(Cl)ccc23)cc1C ?
Completion: inactive

Prompt: Per the records of this test, what outcome belongs to CCOc1ccc(-c2noc(CCC(=O)NC3CCCC3)n2)cc1OC ?
Completion: inactive

Prompt: Per the records of this test, what outcome belongs to Cc1cccc(C(=O)Nc2ccc(-c3nc4ncccc4o3)cc2C)c1 ?
Completion: inactive

Prompt: Per the records of this test, what outcome belongs to Cc1ccccc1S(=O)(=O)N1[C@@H](c2cccc(Cl)c2)C(C(=O)O)=CC[C@H]1c1ccc(Cl)cc1 ?
Completion: active

Prompt: Per the records of this test, what outcome belongs to N#CN1CCC(NS(=O)(=O)c2cccc(F)c2)C1 (configuration not stated) ?
Completion: inactive

Prompt: Per the records of this test, what outcome belongs to Cc1cccc(NC(=O)CN(c2ccc(C(C)C)cc2)S(=O)(=O)c2c(C)nn(C)c2C)c1C ?
Completion: inactive

Prompt: Per the records of this test, what outcome belongs to Cc1ccccc1OCc1nc2c3cnn(-c4ccccc4F)c3ncn2n1 ?
Completion: inactive

Prompt: Per the records of this test, what outcome belongs to O=C(NCCc1ccccc1)c1cnc2sc(N3CCCC3)nn2c1=O ?
Completion: inactive

Prompt: Per the records of this test, what outcome belongs to COc1cn(CC(=O)Nc2cccc(C)c2C)c(CN2CCCCC2)cc1=O ?
Completion: inactive

Prompt: Per the records of this test, what outcome belongs to COc1ccc(NC(=O)c2sc3nc(-c4cc5cccc(OC)c5oc4=O)[nH]c(=O)c3c2C)cc1 ?
Completion: inactive

Prompt: Per the records of this test, what outcome belongs to CCN(CC)c1ccc(NS(=O)(=O)c2cc(-c3cc(C)no3)ccc2C)c(C)c1 ?
Completion: inactive

Prompt: Per the records of this test, what outcome belongs to CCC(=O)OCc1c(C(F)(F)F)nn(C)c1Oc1cccc(C(F)(F)F)c1 ?
Completion: active

Prompt: Per the records of this test, what outcome belongs to N#Cc1c(NC(=O)C2CCCO2)sc2c1CCCCC2 (configuration not stated) ?
Completion: inactive

Prompt: Per the records of this test, what outcome belongs to CCCN1C(=O)C(O)(CC(=O)c2ccc(CC)cc2)c2cc(Br)ccc21 (configuration not stated) ?
Completion: inactive

Prompt: Per the records of this test, what outcome belongs to CCCCN(CC)CCCNC(=O)Cn1ncc2c([nH]c3ccc(C)cc32)c1=O ?
Completion: inactive

Prompt: Per the records of this test, what outcome belongs to CC1CCCN(c2csc3ccc(F)cc3c2=O)C1 (configuration not stated) ?
Completion: inactive

Prompt: Per the records of this test, what outcome belongs to CC(=O)NNC1=Nc2ccccc2N(C)C(C)C1 (configuration not stated) ?
Completion: inactive
